# targetOrSystem: T1, GST-ctCENP-I^NT
# T1 chain: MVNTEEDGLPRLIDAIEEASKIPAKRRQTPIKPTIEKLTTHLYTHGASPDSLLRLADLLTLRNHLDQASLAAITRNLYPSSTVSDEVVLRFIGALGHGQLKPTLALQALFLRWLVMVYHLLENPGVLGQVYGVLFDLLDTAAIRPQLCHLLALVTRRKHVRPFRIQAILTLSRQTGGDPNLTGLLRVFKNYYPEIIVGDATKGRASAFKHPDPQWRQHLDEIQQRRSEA
# assayName: GST pull-down
# measurementConditions: chain shown with the change;; parent: est. 1.0; read off a plot
observable: ratio to parent
Write the number on its own, no unit after it.

For orientation, consider the following solved cases.
full-length T. terrestris CENP-H (thCENP-H) I205A; I211A (protein) MAATASTATPTPLPHFTEREASVLALYDRLRQLQLELALLTSQRSHGVIETSASRRAENDLAVDEARLLEARATLDLRDSVVENVVTLQPILNAVHHATHASPLERDLLPYTEQRDATATKVASLCADLDSAWGRLAELETESLRATQRNMELASEVLRLAAGTNDKTPSQLEGGRLEMELAGHEAEMKSNRRRWRIMKGAASAAVAGSGADWVRDERLRDLVLDLPD ... 1.1
full-length T. terrestris CENP-H (thCENP-H) I205A; L219A (protein) MAATASTATPTPLPHFTEREASVLALYDRLRQLQLELALLTSQRSHGVIETSASRRAENDLAVDEARLLEARATLDLRDSVVENVVTLQPILNAVHHATHASPLERDLLPYTEQRDATATKVASLCADLDSAWGRLAELETESLRATQRNMELASEVLRLAAGTNDKTPSQLEGGRLEMELAGHEAEMKSNRRRWRIMKGAASAAVAGSGIDWVRDERARDLVLDLPD ... 1.1
full-length T. terrestris CENP-H (thCENP-H) I205A (protein) MAATASTATPTPLPHFTEREASVLALYDRLRQLQLELALLTSQRSHGVIETSASRRAENDLAVDEARLLEARATLDLRDSVVENVVTLQPILNAVHHATHASPLERDLLPYTEQRDATATKVASLCADLDSAWGRLAELETESLRATQRNMELASEVLRLAAGTNDKTPSQLEGGRLEMELAGHEAEMKSNRRRWRIMKGAASAAVAGSGIDWVRDERLRDLVLDLPD ... 1.1
full-length T. terrestris CENP-H (thCENP-H) I211A (protein) MAATASTATPTPLPHFTEREASVLALYDRLRQLQLELALLTSQRSHGVIETSASRRAENDLAVDEARLLEARATLDLRDSVVENVVTLQPILNAVHHATHASPLERDLLPYTEQRDATATKVASLCADLDSAWGRLAELETESLRATQRNMELASEVLRLAAGTNDKTPSQLEGGRLEMELAGHEAEMKSNRRRWRIMKGAASAIVAGSGADWVRDERLRDLVLDLPD ... 1.2

Now for a further binder.
Look up ratio to parent for this binder: full-length T. terrestris CENP-H (thCENP-H) L224A (protein) MAATASTATPTPLPHFTEREASVLALYDRLRQLQLELALLTSQRSHGVIETSASRRAENDLAVDEARLLEARATLDLRDSVVENVVTLQPILNAVHHATHASPLERDLLPYTEQRDATATKVASLCADLDSAWGRLAELETESLRATQRNMELASEVLRLAAGTNDKTPSQLEGGRLEMELAGHEAEMKSNRRRWRIMKGAASAIVAGSGIDWVRDERLRDLVADLPD 0.36
